Target: Non-receptor tyrosine-protein kinase TYK2 (Homo sapiens, UniProt P29597)
Sequence (P29597 whole entry, the tested form may be a part): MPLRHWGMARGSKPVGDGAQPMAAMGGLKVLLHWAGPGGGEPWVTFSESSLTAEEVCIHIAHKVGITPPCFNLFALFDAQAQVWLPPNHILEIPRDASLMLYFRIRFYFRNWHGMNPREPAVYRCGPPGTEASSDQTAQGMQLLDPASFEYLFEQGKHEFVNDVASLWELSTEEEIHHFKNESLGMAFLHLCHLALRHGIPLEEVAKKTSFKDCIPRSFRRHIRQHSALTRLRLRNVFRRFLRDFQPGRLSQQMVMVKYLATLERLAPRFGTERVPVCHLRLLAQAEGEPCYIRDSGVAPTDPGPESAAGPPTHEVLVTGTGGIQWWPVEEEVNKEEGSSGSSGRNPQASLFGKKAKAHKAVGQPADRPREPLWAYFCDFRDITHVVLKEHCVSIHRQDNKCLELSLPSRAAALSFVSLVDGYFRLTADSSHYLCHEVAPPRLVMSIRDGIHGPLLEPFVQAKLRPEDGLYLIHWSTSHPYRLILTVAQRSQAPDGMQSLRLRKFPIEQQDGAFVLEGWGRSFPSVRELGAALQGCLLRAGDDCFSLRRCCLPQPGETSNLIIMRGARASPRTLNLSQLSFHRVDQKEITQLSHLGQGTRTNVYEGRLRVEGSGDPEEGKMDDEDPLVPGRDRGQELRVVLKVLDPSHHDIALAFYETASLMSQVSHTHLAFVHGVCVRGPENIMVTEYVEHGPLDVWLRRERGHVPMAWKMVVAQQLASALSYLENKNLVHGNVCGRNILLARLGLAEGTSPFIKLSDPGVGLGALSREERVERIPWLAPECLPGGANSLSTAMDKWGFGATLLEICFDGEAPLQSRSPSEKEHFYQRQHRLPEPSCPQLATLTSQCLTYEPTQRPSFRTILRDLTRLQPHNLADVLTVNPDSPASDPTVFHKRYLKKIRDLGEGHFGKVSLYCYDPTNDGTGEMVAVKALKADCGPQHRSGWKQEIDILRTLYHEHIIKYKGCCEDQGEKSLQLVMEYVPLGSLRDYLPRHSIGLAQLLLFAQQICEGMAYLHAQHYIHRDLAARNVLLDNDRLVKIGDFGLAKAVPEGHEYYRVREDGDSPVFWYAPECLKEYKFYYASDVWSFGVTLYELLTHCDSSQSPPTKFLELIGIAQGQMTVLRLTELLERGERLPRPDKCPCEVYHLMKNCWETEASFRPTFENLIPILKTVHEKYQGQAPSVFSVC
Experiment: TYK2 JH2 Domain Binding Assay: DiscoverX's KINOMEscan™ is a popular platform for kinase profiling, frequently used in academic and industry witnessed by publications, therefore we selected this platform as a primary cell-free screening assay to determine the relative binding potency and guide chemistry SAR.Developed by DiscoverX, KINOMEscan™ employs proprietary active-site dependent competition binding assays to determine how compounds bind to kinases. KINOMEscan™ is based on a competition binding assay that quantitatively measures the ability of a compound to compete with an immobilized, active site directed ligand. The assay is performed by combining three components: DNA-tagged kinase; immobilized ligand; and a test compound. […] The liganded beads were blocked with excess biotin and washed with blocking buffer (SeaBlock (Pierce), 1% BSA, 0.05% Tween 20, 1 mM DTT) to remove unbound ligand and to reduce non-specific binding. […] Test compounds were prepared as 111× stocks in 100% DMSO. All test compounds were shipped to DiscoverX in DMSO with concentration of 10 mM. […] Each compound was tested in duplicate. […] The compounds were then diluted directly into the assays such that the final concentration of DMSO was 0.9%. All reactions performed in polypropylene 384-well plate. Each was a final volume of 0.02 ml. […] The kinase concentration in the eluates was measured by qPCR.The amount of kinase measured by qPCR (Signal; y-axis) is plotted against the corresponding compound concentration in nM in log 10 scale (x-axis). Binding constants (Kds) were calculated with a standard dose-response curve using the Hill equation:Response = Background + Signal - Background 1 + ( Kd Hill   Slope / Dose Hill   Slope ) The Hill Slope was set to −1.
outcome measure: Kd

smi: CNC(=O)c1nnc(N2CCC(C)(C)C2=O)cc1Nc1cccc(-c2ncn(C)n2)c1OC
test value: < 1 nM
